measurement target: T1, low-density lipoprotein receptor-related protein (LRP), purified (human, UniProt Q07954 20-4544)
T1 construct: mature; also called low density lipoprotein receptor-related protein/α2-macroglobulin receptor; LRP receptor
T1 sequence (Q07954 20-4544, form in doubt): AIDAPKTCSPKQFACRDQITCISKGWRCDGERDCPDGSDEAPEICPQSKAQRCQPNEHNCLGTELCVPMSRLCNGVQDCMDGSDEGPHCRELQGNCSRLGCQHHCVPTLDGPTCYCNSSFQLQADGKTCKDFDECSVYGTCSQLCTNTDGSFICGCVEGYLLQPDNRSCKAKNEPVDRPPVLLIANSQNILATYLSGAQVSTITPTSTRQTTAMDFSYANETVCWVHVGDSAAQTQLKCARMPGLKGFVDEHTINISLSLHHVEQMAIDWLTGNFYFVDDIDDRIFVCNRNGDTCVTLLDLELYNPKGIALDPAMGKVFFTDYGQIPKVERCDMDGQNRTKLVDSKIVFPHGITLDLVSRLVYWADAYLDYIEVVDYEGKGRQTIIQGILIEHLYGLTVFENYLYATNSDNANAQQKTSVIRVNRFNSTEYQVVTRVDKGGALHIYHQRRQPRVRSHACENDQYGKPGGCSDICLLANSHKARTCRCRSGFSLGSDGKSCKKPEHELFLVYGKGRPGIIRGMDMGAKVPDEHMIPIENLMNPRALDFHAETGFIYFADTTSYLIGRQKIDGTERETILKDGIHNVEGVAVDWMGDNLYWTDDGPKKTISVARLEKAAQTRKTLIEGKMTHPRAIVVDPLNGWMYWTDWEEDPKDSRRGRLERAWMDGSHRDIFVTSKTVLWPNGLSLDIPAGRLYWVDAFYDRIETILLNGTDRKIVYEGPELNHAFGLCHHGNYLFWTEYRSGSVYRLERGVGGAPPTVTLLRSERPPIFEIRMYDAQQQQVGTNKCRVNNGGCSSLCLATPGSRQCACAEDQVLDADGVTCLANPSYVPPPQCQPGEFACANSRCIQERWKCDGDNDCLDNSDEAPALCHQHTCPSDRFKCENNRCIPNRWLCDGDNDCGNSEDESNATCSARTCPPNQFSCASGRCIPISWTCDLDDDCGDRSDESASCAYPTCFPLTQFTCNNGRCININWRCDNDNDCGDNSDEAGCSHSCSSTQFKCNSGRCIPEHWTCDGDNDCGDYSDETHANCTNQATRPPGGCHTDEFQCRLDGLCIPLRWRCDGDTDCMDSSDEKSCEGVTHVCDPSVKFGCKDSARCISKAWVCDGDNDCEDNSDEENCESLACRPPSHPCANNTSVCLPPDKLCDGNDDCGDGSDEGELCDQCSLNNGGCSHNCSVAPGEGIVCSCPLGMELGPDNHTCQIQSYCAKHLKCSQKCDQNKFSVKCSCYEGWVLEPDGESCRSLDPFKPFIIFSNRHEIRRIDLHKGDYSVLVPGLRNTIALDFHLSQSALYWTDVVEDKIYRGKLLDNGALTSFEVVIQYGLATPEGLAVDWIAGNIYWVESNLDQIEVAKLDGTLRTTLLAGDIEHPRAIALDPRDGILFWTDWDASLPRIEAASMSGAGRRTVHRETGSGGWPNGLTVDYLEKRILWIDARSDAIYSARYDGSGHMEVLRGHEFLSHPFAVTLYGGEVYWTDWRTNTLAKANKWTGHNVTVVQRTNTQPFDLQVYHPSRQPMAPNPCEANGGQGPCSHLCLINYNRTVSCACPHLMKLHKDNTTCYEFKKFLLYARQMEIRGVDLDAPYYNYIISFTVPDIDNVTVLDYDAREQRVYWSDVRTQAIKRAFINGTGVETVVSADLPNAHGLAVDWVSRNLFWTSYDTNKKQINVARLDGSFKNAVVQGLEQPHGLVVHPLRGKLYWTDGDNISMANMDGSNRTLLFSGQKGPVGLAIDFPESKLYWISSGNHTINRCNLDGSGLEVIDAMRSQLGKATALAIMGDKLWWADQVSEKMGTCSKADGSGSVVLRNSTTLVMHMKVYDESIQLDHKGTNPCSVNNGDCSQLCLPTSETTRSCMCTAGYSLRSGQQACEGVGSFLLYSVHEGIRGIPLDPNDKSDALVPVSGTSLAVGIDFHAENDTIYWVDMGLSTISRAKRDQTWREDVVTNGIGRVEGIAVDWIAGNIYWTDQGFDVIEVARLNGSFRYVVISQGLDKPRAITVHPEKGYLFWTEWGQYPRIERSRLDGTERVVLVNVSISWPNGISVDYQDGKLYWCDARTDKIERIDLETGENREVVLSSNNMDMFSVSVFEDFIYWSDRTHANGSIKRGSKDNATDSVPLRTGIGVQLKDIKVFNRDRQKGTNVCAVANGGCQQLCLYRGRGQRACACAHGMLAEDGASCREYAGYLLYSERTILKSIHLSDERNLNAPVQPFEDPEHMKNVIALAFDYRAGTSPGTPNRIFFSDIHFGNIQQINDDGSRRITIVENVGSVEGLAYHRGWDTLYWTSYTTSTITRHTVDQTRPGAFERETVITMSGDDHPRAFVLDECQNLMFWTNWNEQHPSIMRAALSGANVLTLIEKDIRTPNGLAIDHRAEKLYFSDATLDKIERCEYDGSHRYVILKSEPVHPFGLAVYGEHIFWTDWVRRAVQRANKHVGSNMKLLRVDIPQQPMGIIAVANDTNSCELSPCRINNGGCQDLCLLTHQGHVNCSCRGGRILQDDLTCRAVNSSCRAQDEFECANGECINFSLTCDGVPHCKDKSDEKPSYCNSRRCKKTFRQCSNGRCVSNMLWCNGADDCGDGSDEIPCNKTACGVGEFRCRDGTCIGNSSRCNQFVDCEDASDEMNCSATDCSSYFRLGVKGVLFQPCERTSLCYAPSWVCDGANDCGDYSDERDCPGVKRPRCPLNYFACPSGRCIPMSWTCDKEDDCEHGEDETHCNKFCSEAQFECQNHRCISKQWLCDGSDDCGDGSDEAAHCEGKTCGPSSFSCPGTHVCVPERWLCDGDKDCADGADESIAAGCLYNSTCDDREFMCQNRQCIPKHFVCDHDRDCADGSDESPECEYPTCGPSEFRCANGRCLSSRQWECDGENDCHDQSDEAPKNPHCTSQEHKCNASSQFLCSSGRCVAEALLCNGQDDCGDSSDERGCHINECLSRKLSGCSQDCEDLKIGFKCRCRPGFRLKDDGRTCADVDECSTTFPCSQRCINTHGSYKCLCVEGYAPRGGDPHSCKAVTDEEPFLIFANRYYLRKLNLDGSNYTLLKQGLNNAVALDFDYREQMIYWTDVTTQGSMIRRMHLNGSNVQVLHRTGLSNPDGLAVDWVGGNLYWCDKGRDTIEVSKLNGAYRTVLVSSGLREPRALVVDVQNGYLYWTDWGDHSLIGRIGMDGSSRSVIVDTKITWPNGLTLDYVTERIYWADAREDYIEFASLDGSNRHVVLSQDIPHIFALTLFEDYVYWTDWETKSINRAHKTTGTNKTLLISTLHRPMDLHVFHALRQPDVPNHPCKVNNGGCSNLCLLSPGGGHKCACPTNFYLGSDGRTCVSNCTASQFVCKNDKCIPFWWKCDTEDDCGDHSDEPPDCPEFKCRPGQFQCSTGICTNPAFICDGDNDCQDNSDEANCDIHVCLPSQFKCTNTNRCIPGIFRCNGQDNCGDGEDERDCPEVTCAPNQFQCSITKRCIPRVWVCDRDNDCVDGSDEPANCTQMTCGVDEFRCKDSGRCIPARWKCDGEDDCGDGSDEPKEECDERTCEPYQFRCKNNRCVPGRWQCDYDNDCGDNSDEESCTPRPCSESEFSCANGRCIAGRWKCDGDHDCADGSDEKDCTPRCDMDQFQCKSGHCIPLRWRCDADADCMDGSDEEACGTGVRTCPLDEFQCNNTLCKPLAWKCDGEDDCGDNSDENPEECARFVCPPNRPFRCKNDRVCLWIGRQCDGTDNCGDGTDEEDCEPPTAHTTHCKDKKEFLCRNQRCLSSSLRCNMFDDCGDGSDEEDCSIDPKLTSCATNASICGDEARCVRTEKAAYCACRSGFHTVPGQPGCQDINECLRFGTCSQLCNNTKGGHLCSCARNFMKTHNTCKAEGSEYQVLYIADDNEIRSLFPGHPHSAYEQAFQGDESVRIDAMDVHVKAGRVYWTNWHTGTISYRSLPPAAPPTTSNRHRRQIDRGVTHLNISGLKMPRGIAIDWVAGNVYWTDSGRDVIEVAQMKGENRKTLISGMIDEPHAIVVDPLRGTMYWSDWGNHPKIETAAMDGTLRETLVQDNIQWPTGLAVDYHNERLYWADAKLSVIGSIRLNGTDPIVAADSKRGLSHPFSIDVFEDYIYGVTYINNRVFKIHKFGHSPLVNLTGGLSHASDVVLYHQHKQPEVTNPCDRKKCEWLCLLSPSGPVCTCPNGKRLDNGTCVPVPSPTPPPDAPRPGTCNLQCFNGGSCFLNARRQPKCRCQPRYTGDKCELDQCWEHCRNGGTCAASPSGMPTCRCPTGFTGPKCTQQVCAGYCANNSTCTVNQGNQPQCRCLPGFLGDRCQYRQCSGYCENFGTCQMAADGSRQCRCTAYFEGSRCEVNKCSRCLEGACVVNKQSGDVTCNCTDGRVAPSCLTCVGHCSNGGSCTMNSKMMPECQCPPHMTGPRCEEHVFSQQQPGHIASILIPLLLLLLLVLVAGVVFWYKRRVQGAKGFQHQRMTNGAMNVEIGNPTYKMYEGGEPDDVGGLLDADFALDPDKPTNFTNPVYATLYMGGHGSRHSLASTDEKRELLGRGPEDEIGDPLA
experiment notes: SPR, BIAcore 3000, one-site model, KD = koff/kon
result type: Kd (nM)

[[record]]
binder = "recombinant A2 mutant #12 (Leu-491 to Ala) (other, hx-A2 form from Sf9 cells) SGAKKHPKTWVHYIAAEEEDWDYAPLVLAPDDRSYKSQYLNNGPQRIGRKYKKVRFMAYTDETFKTREAIQHESGILGPLLYGEVGDTLLIIFKNQASRPYNIYPHGITDVRPLYSRRAPKGVKHLKDFPILPGEIFKYKWTVTVEDGPTKSDPRCLTRYYSSFVNMERDLASGLIGPLLICYKESVDQRGNQIMSDKRNVILFSVFDENRSWYLTENIQRFLPNPAGVQLEDPEFQASNIMHSINGYVFDSLQLSVCLHEVAYWYILSIGAQTDFLSVFFSGYTFKHKMVYEDTLTLFPFSGETVFMSMENPGLWILGCHNSDFRNRGMTALLKVSSCDKNTGDYYEDSYEDISAYLLSKNNAIEPR"
numeric_value = 21

